Every entry's value here was drawn from PubChem BioAssay AID1460.

# target_desc: Microtubule-associated protein tau (Homo sapiens) (UniProt P10636)
# Sequence (P10636 561-689 P618L limits assumed): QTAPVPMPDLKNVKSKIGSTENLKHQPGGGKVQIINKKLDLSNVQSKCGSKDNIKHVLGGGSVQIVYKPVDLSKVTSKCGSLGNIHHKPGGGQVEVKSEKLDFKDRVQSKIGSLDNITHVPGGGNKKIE
# assay_method_text: qHTS for Inhibitors of Tau Fibril Formation, Thioflavin T Binding; further: nearly all actives have a fitted effect of over 55% in size
# assay_setup: recombinant tau K18 P301L, heparin-induced fibrillization, ThT fluorescence; series mostly up to 57.4 µM
Screen size: about 270,000 compounds; about 5,800 (2.1%) were called active. About 16% were inconclusive and are not listed. The call rests on the fitted dose curve; in most records, active means well fitted inhibition curve with a large enough effect; inconclusive means small, poorly fitted or top-dose-only effect; inactive means flat fitted curve, though single readings scatter. The sample as a whole holds a higher share of actives than the screen did.
Reply using exactly one outcome from active, inactive

Query: Record lookup: outcome of this test for "Cc1c(C(=O)N2CCCC2)oc2c1-c1nn(CC(=O)NCc3ccc(OC(C)C)cc3)cc1CC2" ?
Result: inactive

Query: Record lookup: outcome of this test for "CCCCOc1ccc(Cn2c(=O)oc3ccc(C)cc32)cc1OC" ?
Result: inactive

Query: Record lookup: outcome of this test for "CC(C)CNc1ncnc2c1nnn2C" ?
Result: inactive

Query: Record lookup: outcome of this test for "Cc1cc(F)ccc1NS(=O)(=O)c1ccc(-n2cccn2)cc1" ?
Result: inactive

Query: Record lookup: outcome of this test for "Cc1oc2c(c1C(=O)Nc1ccc(F)c(F)c1)C1=NCCN1C=N2" ?
Result: inactive

Query: Record lookup: outcome of this test for "COc1cc(C=O)c(Br)cc1OCC(=O)NCc1ccccc1" ?
Result: inactive

Query: Record lookup: outcome of this test for "COc1cc(C(=S)NCc2ccccc2)cc(Br)c1O" ?
Result: active

Query: Record lookup: outcome of this test for "CCCCOc1ccc(CN2C(=O)C(=O)c3cc(Br)cc(C)c32)cc1OC" ?
Result: active

Query: Record lookup: outcome of this test for "Cc1cccc(NC(=O)N2CCC(CN3CCc4ccccc4C3)CC2)c1C" ?
Result: inactive

Query: Record lookup: outcome of this test for "CCc1ccc(NC(=O)CSc2nc3c([nH]c4ccccc43)c(=O)n2-c2cccc(OC)c2)cc1" ?
Result: inactive

Query: Record lookup: outcome of this test for COc1ccc(CN2C(=O)CC(Cc3ccc(C)cc3)C2=O)cc1OC (stereo unspecified) ?
Result: inactive

###

# target_desc: Microtubule-associated protein tau (Homo sapiens)
# assay_method_text: qHTS for Inhibitors of Tau Fibril Formation, Thioflavin T Binding; further: nearly all actives have a fitted effect of over 55% in size
# assay_setup: recombinant tau K18 P301L, heparin-induced fibrillization, ThT fluorescence; series mostly up to 57.4 µM
In all, about 270,000 compounds went through this assay and about 5,800 (2.1%) were called active. Not shown: some 16% with an inconclusive outcome. Calls come from the whole dose curve; as a rule, active = well fitted inhibition curve with a large enough effect; inconclusive = small, poorly fitted or top-dose-only effect; inactive = flat fitted curve, though single readings scatter. Shown is part of a subset that was picked to be rich in actives.
Reply using exactly one outcome from active, inactive

Query: Record lookup: outcome of this test for "COc1ccccc1CNc1nccn(-c2ccc(F)cc2)c1=O" ?
Result: inactive

Query: Record lookup: outcome of this test for CC1(OC(=O)C2CCCC2)C(=O)C=C2C=C(c3ccc(C#N)cc3)OC=C2C1=O (stereo unspecified) ?
Result: inactive

Query: Record lookup: outcome of this test for "CCCS(=O)(=O)c1ncc(Cl)c(C(=O)Nc2scc(-c3ccccc3)c2C(=O)OCC)n1" ?
Result: active

Query: Record lookup: outcome of this test for "COc1ccc(SCc2cc(=O)c3ccc(C)c(C)c3[nH]2)cc1" ?
Result: inactive

Query: Record lookup: outcome of this test for "O=C(NC(=S)Nc1cccc2c(O)cccc12)c1cccc(Br)c1" ?
Result: active

Query: Record lookup: outcome of this test for "CCOC(=O)c1c(-c2ccccc2)csc1NC(=S)NC(=O)c1ccccc1" ?
Result: inactive

###

# target_desc: Microtubule-associated protein tau (Homo sapiens) (UniProt P10636)
# assay_method_text: qHTS for Inhibitors of Tau Fibril Formation, Thioflavin T Binding; further: nearly all actives have a fitted effect of over 55% in size
# assay_setup: recombinant tau K18 P301L (four-repeat tau fragment), heparin-induced fibrillization, ThT fluorescence; series mostly up to 57.4 µM
# From the text: NIH Molecular Libraries Probe Production Network [MLPCN] NIH Chemical Genomics Center [NCGC] Assay Provider: Carlo Ballatore, University of Pennsylvania The microtubule-associated protein tau is an abundant protein in the axons of neurons that stabilizes microtubules. With its ability to modulate microtubule dynamics, tau contributes directly or indirectly, to key structural and regulatory cellular functions. […] This assay monitors tau fibrillization by Thioflavin T (ThT) fluorescence. […]
About 5,800 (2.1%) of roughly 270,000 compounds were called active. About 16% were inconclusive and are not listed. Calls come from the whole dose curve; as a rule, active = well fitted inhibition curve with a large enough effect; inconclusive = small, poorly fitted or top-dose-only effect; inactive = flat fitted curve, though single readings scatter. The sample as a whole holds a higher share of actives than the screen did.
Reply using exactly one outcome from active, inactive

Query: Record lookup: outcome of this test for "COc1ccc(-c2nnc(SCC(=O)Nc3ccccc3C)o2)cc1OC" ?
Result: inactive

Query: Record lookup: outcome of this test for "Cc1ccc(N=C2NC(=O)/C(=C/C=C/c3ccco3)S2)cc1C" ?
Result: active

Query: Record lookup: outcome of this test for "CN(C)c1ccc(/C=C/C(=O)c2ccc(C(C)(C)C)cc2)cc1[N+](=O)[O-]" ?
Result: inactive

Query: Record lookup: outcome of this test for "O=C(c1ccc(Cl)c([N+](=O)[O-])c1)N1CCN(c2ccccc2)CC1" ?
Result: inactive

Query: Record lookup: outcome of this test for O=C(NCCc1ccccc1)C(=O)NCC(c1ccco1)S(=O)(=O)c1ccccc1 (configuration not stated) ?
Result: inactive

Query: Record lookup: outcome of this test for O=C(NC1CC(=O)N(c2ccc(Cl)cc2)C1)C1CCCC1 (configuration not stated) ?
Result: inactive

Query: Record lookup: outcome of this test for Cc1ccc(Cl)cc1NC(=O)NC1COc2ccccc2C1 (configuration not stated) ?
Result: inactive

Query: Record lookup: outcome of this test for "CCc1nc(-c2cc(S(=O)(=O)N3CCN(c4ccc(OC)cc4)CC3)ccc2OC)no1" ?
Result: active

Query: Record lookup: outcome of this test for "Cc1nc2ccc(S(=O)(=O)N(CC(=O)Nc3ccc(F)cc3)Cc3ccccc3)cc2s1" ?
Result: inactive

Query: Record lookup: outcome of this test for "CN(C)c1ccc(/C=N/Nc2cc(N3CCOCC3)nc(N3CCOCC3)n2)cc1" ?
Result: active

Query: Record lookup: outcome of this test for "CN(Cc1ccccc1)S(=O)(=O)c1ccc(F)c(C(=O)Nc2cccc(Cl)c2Cl)c1" ?
Result: inactive

Query: Record lookup: outcome of this test for "Cc1cccc(S(=O)(=O)c2cn(Cc3ccccc3)c3cc(N4CCOCC4)c(F)cc3c2=O)c1" ?
Result: inactive

Query: Record lookup: outcome of this test for "COc1ccccc1CC(=O)Nc1ccc([N+](=O)[O-])cc1OC" ?
Result: inactive

Query: Record lookup: outcome of this test for "COc1ccc(Cc2nc3ccc(C(=O)NCc4ccccc4C)cc3o2)cc1" ?
Result: inactive

Query: Record lookup: outcome of this test for "CCOc1ccc(CC(=O)NCCc2csc3nc(-c4ccccc4F)nn23)cc1" ?
Result: inactive

Query: Record lookup: outcome of this test for "O=C(/C=C/c1ccc(Cl)c([N+](=O)[O-])c1)c1ccc(O)cc1" ?
Result: active

Query: Record lookup: outcome of this test for "O=C1Nc2ccc(Br)cc2/C1=N/N=C/C1=C(N2CCOCC2)C(=C\c2ccccc2)/CC1" ?
Result: active

Query: Record lookup: outcome of this test for CC(CCO)Nc1nc2c([nH]1)c(=O)n(C)c(=O)n2C (configuration not stated) ?
Result: inactive

Query: Record lookup: outcome of this test for "CC(=O)c1ccc(NS(=O)(=O)c2ccc(-c3cc(C)no3)s2)cc1" ?
Result: inactive

Query: Record lookup: outcome of this test for "N/C(=N\OC(=O)Cc1ccccc1[N+](=O)[O-])c1ccc(Br)cc1" ?
Result: inactive

Query: Record lookup: outcome of this test for "Cc1ccc(-c2nnc(SCc3ccccc3C)o2)cc1" ?
Result: inactive

Query: Record lookup: outcome of this test for "CN(C)c1ccc(-n2cccc2/C=C2/SC(=Nc3ccc(F)cc3)NC2=O)cc1" ?
Result: inactive

Query: Record lookup: outcome of this test for "Cc1ccc(N2NC(=O)/C(=C/C=C/c3ccco3)C2=O)cc1C" ?
Result: active

Query: Record lookup: outcome of this test for "Cn1nnnc1SCCCNCc1cccc(OCc2ccc(Cl)cc2)c1" ?
Result: inactive

Query: Record lookup: outcome of this test for "O=C(CN1CCN(c2ccccn2)CC1)N1CCc2ccccc21" ?
Result: inactive

Query: Record lookup: outcome of this test for "COc1ccc(Cn2c(C(=O)O)c(CNCc3cccc(OC)c3)c3ccc(C)cc32)cc1" ?
Result: inactive

Query: Record lookup: outcome of this test for "CN(C)c1ccc(/C=C/C(=O)c2ccc(O)cc2)cc1[N+](=O)[O-]" ?
Result: active

Query: Record lookup: outcome of this test for "O=C(Nc1ccc(S(=O)(=O)N2CCC(c3nc4ccccc4s3)CC2)cc1)c1ccccc1F" ?
Result: inactive

Query: Record lookup: outcome of this test for "CC(=O)N1CCCc2cc(S(=O)(=O)N3CCC(C(=O)NCc4ccc(C)cc4)CC3)ccc21" ?
Result: inactive

Query: Record lookup: outcome of this test for "COc1ccc(N2CCN(S(=O)(=O)c3ccc(-c4coc(C)n4)cc3)CC2)cc1" ?
Result: inactive

Query: Record lookup: outcome of this test for CC1Cc2cc(S(=O)(=O)CCC(=O)NCc3ccc(Cl)cc3)ccc2N1C(=O)C1CC1 (configuration not stated) ?
Result: inactive

Query: Record lookup: outcome of this test for "Cc1ccc(-c2cc(C(=O)N/N=C/C=C/c3ccco3)c3ccccc3n2)cc1C" ?
Result: inactive

Query: Record lookup: outcome of this test for "COc1ccccc1CCNC(=O)c1cccn1-c1nnc(N2CCCCC2)s1" ?
Result: inactive

Query: Record lookup: outcome of this test for Cc1ccc(Cl)cc1NC(=O)C(C)n1nnc2sc(-c3ccccc3)cc2c1=O (configuration not stated) ?
Result: active

Query: Record lookup: outcome of this test for "Cc1ccc(CNC(=O)CSc2c(C)cnc3c2c(=O)n(C)c(=O)n3C)cc1" ?
Result: inactive

Query: Record lookup: outcome of this test for "CC(=O)c1ccc(NC(=O)CSc2nc(-c3ccccc3F)nc3c2c(=O)n(C)c(=O)n3C)cc1" ?
Result: inactive

Query: Record lookup: outcome of this test for "COc1ccc(Cc2nc3ccc(C(=O)NCc4ccc(OC)cc4OC)cc3o2)cc1" ?
Result: inactive

Query: Record lookup: outcome of this test for "C(=N\N1CCN(c2ccccn2)CC1)/C1=C(N2CCOCC2)C(=C/c2ccccc2)/CC1" ?
Result: active

Query: Record lookup: outcome of this test for "C=CCNc1scc(-c2ccccc2)[n+]1CC=C" ?
Result: inactive

Query: Record lookup: outcome of this test for "CCOC(=O)c1cc(-c2ccc(OC)c(S(=O)(=O)Nc3ccc(OC)cc3OC)c2)on1" ?
Result: inactive

Query: Record lookup: outcome of this test for "Cc1ccc(Cl)cc1NC(=O)c1ccccn1" ?
Result: inactive

Query: Record lookup: outcome of this test for "COc1ccc(NC(=O)CCCc2nnc3n(CCC(C)C)c(=O)c4sccc4n23)c(OC)c1" ?
Result: inactive
